Each record here notes measured melting point.

Below are worked cases with known answers.
compound	obs-value
Cl.c1ccc(-c2ccc(COc3ccc4c(c3)CCC(CCN3CCCC3)C4)cc2)cc1 (stereo not shown)	197 to 199 °C
CN(C)CC1CCc2cc(OCc3ccc(-c4ccsc4)cc3)ccc2C1.Cl (stereo not shown)	222 to 223 °C
CCCN(CCC)CC1CCc2cc(OCc3ccc(-c4ccccc4)cc3)ccc2C1.Cl (stereo not shown)	164 to 166 °C

IN: Which value of melting point has been reported for CN(C)CC1CCc2cc(OCc3ccc4ccccc4c3)ccc2C1.Cl (stereo not shown) in the records?
OUT: 228 to 229 °C

IN: Same read-out for Cl.c1ccc2cc(COc3ccc4c(c3)CCC(CN3CCCCC3)C4)ccc2c1 (stereo not shown) ?
OUT: 215 to 218 °C (dec.)

---

attribute-measured: melting point

Below are worked cases with known answers.
compound	attribute-measured	obs-value
CN(C)CC1CCc2cc(OCc3ccc(-c4ccccc4C#N)cc3)ccc2C1.Cl (centres unmarked)	melting point	202 to 203 °C
CN(C)CC1CCc2cc(OCc3ccc(-c4cc(C(F)(F)F)cc(C(F)(F)F)c4)cc3)ccc2C1.Cl (centres unmarked)	melting point	196 to 197 °C
COc1ccc(-c2cccc(COc3ccc4c(c3)CCC(CN(C)C)C4)c2)cc1.Cl (centres unmarked)	melting point	182 to 183 °C
CNCC1CCc2cc(OCc3ccc(-c4ccccc4)cc3)ccc2C1.Cl (centres unmarked)	melting point	189 to 190 °C

IN: Which value of melting point has been reported for CN(C)CC1CCc2cc(OCc3ccc(-c4cccs4)cc3)ccc2C1.Cl (centres unmarked) in the records?
OUT: 227 to 228 °C

Data credit: patent US7256204B2
